pKi: −log10 of the molar value.
Recorded pKi for compounds tested on Beta-secretase 2 (Homo sapiens, UniProt Q9Y5Z0), drawn from a number of studies.

See these solved cases before continuing.
compound: COCCOCSC[C@H](NC(=O)OCc1nc(C)cs1)C(=O)N[C@H](CC(C)C)[C@@H](O)C[C@@H](C)C(=O)N[C@@H](C(=O)NCC(C)C)C(C)C
tgt: Beta-secretase 2 (Homo sapiens, UniProt Q9Y5Z0)
experimental result: 6.00 to 7.00
//
compound: Cc1csc(CN(C)C(=O)c2cccc(C(=O)NC(Cc3ccccc3)C(O)CNCc3cncc(C(C)C)c3)c2)n1 (stereo not drawn)
tgt: Beta-secretase 2 (Homo sapiens, UniProt Q9Y5Z0)
experimental result: 6.30 to 6.52

// query // lookup pKi for `Cc1csc(COC(=O)N[C@@H](CNC(=O)O[C@H]2CCOC2)C(=O)N[C@@H](CC(C)C)[C@@H](O)C[C@@H](C)C(=O)N[C@H](C(=O)NCC(C)C)C(C)C)n1`
// result 6.22 to 7.00

====

Compiled notes: published Ki values involving Beta-secretase 2 (Homo sapiens).

compound: Cc1nc(COC(=O)N[C@@H](CSC(C)C)C(=O)N[C@H](CC(C)C)[C@@H](O)C[C@@H](C)C(=O)N[C@@H](C(=O)NCC(C)C)C(C)C)c(C)o1
property measured: Ki
experimental result: 100 to 1000 nM
//
compound: COc1cnc(C(=O)Nc2ccc(F)c([C@]3(C)CS(=O)(=O)[C@]4(CCOC4)C(=N)N3)c2)cn1
property measured: Ki
experimental result: < 20 nM
//
compound: Cc1csc(CN(C)CC(O)C(Cc2ccccc2)NC(=O)c2cc(C(=O)NC(C)c3ccccc3)cc(N(C)S(C)(=O)=O)c2)n1 (centres unmarked)
property measured: Ki
experimental result: > 501 nM
//
compound: CCS(=O)(=O)[C@]1(C)CC[C@@](CF)(c2cc(NC(=O)c3cc4c(cn3)OC(F)(F)O4)ccc2F)N=C1N
property measured: Ki
experimental result: 68 nM
//
compound: CC(C)CNC(=O)C(NC(=O)C(C)CC(O)C(CC(C)C)NC(=O)c1cc(F)cc(C(=O)NC(C)c2ccccc2)c1)C(C)C (centres unmarked)
property measured: Ki
experimental result: < 405 nM

// query Please report the recorded Ki for `COc1cnc(C(=O)Nc2ccc(F)c([C@]3(C)CS(=O)(=O)C4(CCN(C)CC4)C(=N)N3)c2)c(C)n1` .
// result 23 nM

// query What does the record list as Ki for `COc1cnc(C(=O)Nc2ccc3c(c2)[C@]2(COC3)CS(=O)(=O)C(C)(C)C(=N)N2)c(C)n1` ?
// result 60 nM

// query Value lookup for Ki; key = CC(C)CC(NC(=O)c1cc(C(=O)NC(C)c2ccccc2)cc(N(C)S(C)(=O)=O)c1)C(O)CC(C)C(=O)NC(C)C (centres unmarked)
// result 405 to 2000 nM

====

The compounds below each have a reported Ki tested on Beta-secretase 2 (Homo sapiens, UniProt Q9Y5Z0); the values come from various publications.

Here is how some compounds turned out for Ki.
compound: COCS(=O)(=O)C[C@H](NC(=O)OCc1nc(C)cs1)C(=O)N[C@H](CC(C)C)[C@@H](O)C[C@@H](C)C(=O)N[C@@H](C(=O)NCC(C)C)C1CCCCC1
Ki: 100 to 1000 nM

compound: CN1C(=N)N[C@](C)(c2sc(-c3ncc(-c4ccccc4)[nH]3)cc2Cl)CS1(=O)=O
Ki: 14.8 nM

compound: CC(C)CNC(=O)C(NC(=O)C(C)CC(O)C(CC(C)C)NC(=O)c1cccc(C(=O)N(C)Cc2ccco2)c1)C(C)C (stereo not shown)
Ki: 405 to 2000 nM

compound: Cc1cncc(CNCC(O)C(Cc2ccccc2)NC(=O)c2cc(C(=O)NC(C)c3ccccc3)cc(N(C)S(C)(=O)=O)c2)c1 (stereo not shown)
Ki: 301 to 500 nM

// query Param item = `CC[C@@H](Cc1nc(C)cs1)C(=O)N[C@@H](CSC)C(=O)N[C@H](CC(C)C)[C@@H](O)C[C@@H](C)C(=O)N[C@@H](C(=O)NCC(C)C)C(C)C` ; retrieve measured Ki.
// result 100 to 1000 nM

// query # input compound: `CCCCOc1ccc(-c2nnc(-c3cc(Cl)c([C@]4(C)CS(=O)(=O)N(C)C(=N)N4)s3)o2)cc1` ; wanted: its Ki
// result 258 nM

// query What value of measured Ki is listed for `C[C@@]1(c2sc(-c3cccc(C#N)c3)cc2Cl)CS(=O)(=O)C2(CCCCC2)C(=N)N1` ?
// result < 20 nM

// query Request the reported Ki associated with `CCCOc1ccc(-c2nnc(-c3cc(Cl)c([C@]4(C)CS(=O)(=O)N(C)C(=N)N4)s3)o2)cc1`
// result 313 nM

// query Which Ki is reported for this compound? Cc1csc(CN(C)C(=O)c2cccc(C(=O)NC(Cc3ccccc3)C(O)CNCc3cccc(C(F)(F)F)c3)c2)n1 (stereo not shown)
// result > 501 nM

// query State the recorded Ki for this entry: CCC(NCC(O)C(Cc1ccccc1)NC(=O)c1cccc(C(=O)N(C)Cc2nc(C)cs2)c1)c1ccccc1 (stereo not shown)
// result > 501 nM
